measurement_notes: Hydrodynamic size by dynamic light scattering (DLS)
Format: physicochemical
condition_description: AgInS2 QDs alone or after conjugation with the named ADEP1 analogue
Protocol: A Spectro Xepos-05 energy-dispersive X-ray fluorescence (ED-XRF, Rigaku, TX, USA) instrument was used to determine the Ag, In, and S concentrations in the gelatin-capped AgInS2 QD powder. The core sizes of AgInS2 QDs and AgInS2-ADEP1 analogue conjugates were analyzed by the high-resolution transmission electron microscope (HR-TEM, JEOL, Tokyo, Japan). […] The Hitachi F-2700FL spectrofluorophotometer (Hitachi, Tokyo, Japan) was used for the fluorescence measurements. […]
Exercise: for every item that follows, state its recorded Hydrodynamic Diameter.
One number for each entry, in nm.

These recorded examples may help you get a feel for the data.
INSERT INTO assay_data (substance, reading_unit, test_result) VALUES
  ('Adamantane-FCPAAPC; D-form amino acids (disulfide) [SC006, Disulphide bond cyclized ADEP1 analogue, Adamantane-FCPAAPC, D-form amino acids]', 'nm', 44.2),
  ('Palmitic acid-FCPAAPC; D-form amino acids (disulfide) [SC005, Disulphide bond cyclized ADEP1 analogue, Palmitic acid-FCPAAPC, D-form amino acids]', 'nm', 49.6),
  ('Adamantane-FCPAAPC; L-form amino acids (disulfide) [SC007, Disulphide bond cyclized ADEP1 analogue, Adamantane-FCPAAPC, L-form amino acids]', 'nm', 44.4);

Switching to the query record.
What the record says about Palmitic acid-FCPAAPC; L-form amino acids (disulfide) [SC008, Disulphide bond cyclized ADEP1 analogue, Palmitic acid-FCPAAPC, L-form amino acids] : Hydrodynamic Diameter is 50.3

---

measurement_notes: Zeta potential (zetasizer)
Assay type: physicochemical
condition_description: after conjugation to gelatin-capped AgInS2 QDs; Malvern zetasizer
property_measured: Zeta Potential after Conjugation (mV)
Give bare numbers, in mV.

Previously resolved entries follow.
INSERT INTO measurements (substance, property_measured, test_result) VALUES
  ('Palmitic acid-FCPAAPC; L-form amino acids (disulfide) [SC008, Disulphide bond cyclized ADEP1 analogue, Palmitic acid-FCPAAPC, L-form amino acids]', 'Zeta Potential after Conjugation', 1.39),
  ('Palmitic acid-FCPAAPC; D-form amino acids (disulfide) [SC005, Disulphide bond cyclized ADEP1 analogue, Palmitic acid-FCPAAPC, D-form amino acids]', 'Zeta Potential after Conjugation', 1.46),
  ('Adamantane-FCPAAPC; L-form amino acids (disulfide) [SC007, Disulphide bond cyclized ADEP1 analogue, Adamantane-FCPAAPC, L-form amino acids]', 'Zeta Potential after Conjugation', 1.00);

Next substance, Zeta Potential after Conjugation to be filled in.
So, Adamantane-FCPAAPC; D-form amino acids (disulfide) [SC006, Disulphide bond cyclized ADEP1 analogue, Adamantane-FCPAAPC, D-form amino acids] ? Its Zeta Potential after Conjugation was 1.38

---

So I've got a bunch of substances here, and I need their Zeta Potential before Conjugation values.
measurement_notes: Zeta potential (zetasizer)
Type: physicochemical
condition_description: unconjugated ADEP1 analogue or AgInS2 QDs alone; Malvern zetasizer
Give bare numbers, in mV.

Worked examples, 3 substances total:
INSERT INTO measurements (substance, property_measured, test_result) VALUES
  ('Palmitic acid-FCPAAPC; L-form amino acids (disulfide) [SC008, Disulphide bond cyclized ADEP1 analogue, Palmitic acid-FCPAAPC, L-form amino acids]', 'Zeta Potential before Conjugation', '−6.9'),
  ('Palmitic acid-FCPAAPC; D-form amino acids (disulfide) [SC005, Disulphide bond cyclized ADEP1 analogue, Palmitic acid-FCPAAPC, D-form amino acids]', 'Zeta Potential before Conjugation', '−7.2'),
  ('Adamantane-FCPAAPC; D-form amino acids (disulfide) [SC006, Disulphide bond cyclized ADEP1 analogue, Adamantane-FCPAAPC, D-form amino acids]', 'Zeta Potential before Conjugation', '−3.8');

What the record says about Adamantane-FCPAAPC; L-form amino acids (disulfide) [SC007, Disulphide bond cyclized ADEP1 analogue, Adamantane-FCPAAPC, L-form amino acids] : Zeta Potential before Conjugation is −3.9
